Molecular target: EGFR L858R (NCI-H3255 cells) (Homo sapiens, UniProt P00533, L858R)
Construct: NCI-H3255 (harboring EGFR heterozygous L858R mutation); host or cells: NCI-H3255
Sequence (P00533 25-1210 L858R): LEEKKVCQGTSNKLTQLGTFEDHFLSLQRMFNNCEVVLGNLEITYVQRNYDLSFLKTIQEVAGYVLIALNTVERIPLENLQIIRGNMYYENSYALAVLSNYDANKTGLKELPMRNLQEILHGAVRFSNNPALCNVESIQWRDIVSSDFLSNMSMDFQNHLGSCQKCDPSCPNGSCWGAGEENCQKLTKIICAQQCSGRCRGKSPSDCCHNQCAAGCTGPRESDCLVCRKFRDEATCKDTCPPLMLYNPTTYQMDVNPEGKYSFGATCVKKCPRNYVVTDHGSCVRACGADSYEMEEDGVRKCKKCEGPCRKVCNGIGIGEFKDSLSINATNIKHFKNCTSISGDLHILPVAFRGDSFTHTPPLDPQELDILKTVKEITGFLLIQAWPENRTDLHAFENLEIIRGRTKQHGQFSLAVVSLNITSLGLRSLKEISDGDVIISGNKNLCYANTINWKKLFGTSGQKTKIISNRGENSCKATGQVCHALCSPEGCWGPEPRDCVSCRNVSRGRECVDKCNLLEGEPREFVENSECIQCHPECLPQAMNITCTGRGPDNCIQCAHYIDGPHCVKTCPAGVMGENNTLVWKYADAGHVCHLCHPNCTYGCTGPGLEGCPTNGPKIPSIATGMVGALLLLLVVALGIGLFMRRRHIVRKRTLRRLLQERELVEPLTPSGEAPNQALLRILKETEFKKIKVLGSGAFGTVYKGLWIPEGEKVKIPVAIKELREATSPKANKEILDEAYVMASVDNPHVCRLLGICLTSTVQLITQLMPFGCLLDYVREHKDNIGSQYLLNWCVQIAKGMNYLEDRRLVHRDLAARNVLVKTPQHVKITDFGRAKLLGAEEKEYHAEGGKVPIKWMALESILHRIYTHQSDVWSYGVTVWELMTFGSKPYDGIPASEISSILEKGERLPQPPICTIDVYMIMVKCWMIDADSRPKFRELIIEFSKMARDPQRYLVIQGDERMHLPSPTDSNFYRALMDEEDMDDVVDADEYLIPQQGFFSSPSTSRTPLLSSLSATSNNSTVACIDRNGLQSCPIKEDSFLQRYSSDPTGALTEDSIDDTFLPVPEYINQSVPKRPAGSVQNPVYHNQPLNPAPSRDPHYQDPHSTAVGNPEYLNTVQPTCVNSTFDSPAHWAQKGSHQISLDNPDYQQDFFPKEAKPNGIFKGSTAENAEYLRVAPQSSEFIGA
Assay: EGFR (L858R) degradation analysis, Total EGFR (L858R) HTRF, NCI-H3255 cells
Type: cell-based
Conditions: 6 hours
Experimental: NCI-H1975 (harboring EGFR heterozygous T790M/L858R mutations) and NCI-H3255 (harboring EGFR heterozygous L858R mutation) were purchased from ATCC and NCI, respectively. […] Degradation of EGFR protein containing L858R mutation was determined based on quantification of FRET signal using Total EGFR (L858R) HTRF assay kit. […] FRET signal was acquired on EnVision™ Multilabel Reader (PerkinElmer, Santa Clara, CA, USA).
test_readout: DC50 (nM)

Q. Which DC50 is listed for O=C1CC[C@H](Nc2ccc(C3CCN(CC(=O)N4CCN(Cc5ccc(-c6cc(F)c7c(c6)C(=O)N(C(C(=O)Nc6nccs6)c6ncn8c6CCC8)C7)cc5)CC4)CC3)c(F)c2)C(=O)N1 (stereo partly drawn) ?
A. 26

A: O=C1CC[C@H](Nc2ccc(C3CCN(CC(=O)N4CCC(Cc5ccc(-c6cc(F)c7c(c6)C(=O)N(C(C(=O)Nc6nccs6)c6ncn8c6CCC8)C7)cc5)CC4)CC3)c(F)c2)C(=O)N1 (stereo partly drawn)
B: O=C1CCC(Nc2ccc(C3CCN(CC(=O)N4CCN(c5ccc(-c6cc(F)c7c(c6)C(=O)N(C(C(=O)Nc6nccs6)c6ncn8c6C[C@@H](F)C8)C7)cc5)CC4)CC3)cc2)C(=O)N1 (mixture of isomers)
Q. Identify the item whose DC50 is the smaller number: A or B Reply briefly: the label of your chosen item.
A. B
(B: 6 nM, A: 28 nM)

FYI, the data here is from patent US12486290B2.
